Source listed as the supplement of paper PMC10567573.

B1: INTS3 (parent)
chain: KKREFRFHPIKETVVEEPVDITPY

Variants of: B1
experiment: protein stability index of a GFP-peptide fusion (GPS, HEK-293T) (PSI 1-6); higher = more stable;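 also: lentivirally expressed fusions sorted by FACS into six bins by GFP to DsRed ratio, PSI derived from sequencing read proportions per bin multiplied by bin number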
appliedConditions: c terminus: a fixed tail appended
Cut-off 2 on protein stability index, inclusive. At or above means yes (1); below means no (0).

- F7Y: yes (1)

protein stability index >= 2 for K1W ?
yes (1)

protein stability index >= 2 for H8A ?
yes (1)

protein stability index >= 2 for E16R ?
yes (1)
